Attribute: Kd
Target: human CA-XII (Homo sapiens, UniProt O43570)
Construct: purchased Creative BioMart CA12-261H
Sequence (O43570 25-354): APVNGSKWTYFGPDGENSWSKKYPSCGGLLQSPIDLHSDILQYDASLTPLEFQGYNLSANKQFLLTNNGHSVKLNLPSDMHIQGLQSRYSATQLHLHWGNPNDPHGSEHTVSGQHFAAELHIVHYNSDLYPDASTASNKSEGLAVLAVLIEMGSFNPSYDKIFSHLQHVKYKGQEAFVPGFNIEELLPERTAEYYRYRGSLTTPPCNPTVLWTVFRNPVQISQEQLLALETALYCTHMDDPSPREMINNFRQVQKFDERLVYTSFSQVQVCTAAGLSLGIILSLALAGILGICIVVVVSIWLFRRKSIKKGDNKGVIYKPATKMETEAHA
Assay: Surface Plasmon Resonance (SPR) binding kinetics to recombinant human CA-XII (Biacore 8K, single-cycle kinetics, 1:1 binding model)
Conditions: Chelated Metal: Lu-175, 25° C., pH 7.4, read-out: CAXII KD
experimentalEndpoint: Kd

compound	valueMeasured
CC(CCC(=O)N[C@@H](CC(=O)N[C@@H](CC(=O)NC1(C(=O)NCCOCCOCCNC(=O)CN2CCN(CC(=O)O)CCN(CC(=O)O)CCN(CC(=O)O)CC2)CN(C(=O)Cn2cc(CCCCC(=O)Nc3nnc(S(N)(=O)=O)s3)nn2)C1)C(=O)O)C(=O)O)(c1ccc(O)cc1)c1ccc(O)cc1.[Lu+3] [Compound 103.4]	2.5 to 10 nM
CC(CCC(=O)N1CCOC[C@@H]1C(=O)N[C@@H](CC(=O)N1CCN(C(=O)CN2CCN(CC(=O)O)CCN(CC(=O)O)CCN(CC(=O)O)CC2)C[C@@H]1C(=O)NCCn1cc(C23CC(C(=O)Nc4nnc(S(N)(=O)=O)s4)(C2)C3)nn1)C(=O)O)(c1ccc(O)cc1)c1ccc(O)cc1.[Lu+3] [Compound 108.4]	> 10 nM
NS(=O)(=O)c1nnc(NC(=O)C23CC(c4cn(CCNC(=O)[C@@H]5CN(C(=O)CN6CCN(CC(=O)O)CCN(CC(=O)O)CCN(CC(=O)O)CC6)CCN5C(=O)CNC(=O)C5(C(=O)O)CCN(C(=O)c6cc(C(F)(F)F)n[nH]6)CC5)nn4)(C2)C3)s1.[Lu+3] [Compound 112.11]	> 10 nM
NS(=O)(=O)c1nnc(NC(=O)C23CC(c4cn(CCNC(=O)[C@H]5CN(C(=O)CN6CCN(CC(=O)O)CCN(CC(=O)O)CCN(CC(=O)O)CC6)CCN5C(=O)CC[C@H](NC(=O)c5n[nH]c6ccccc56)C(=O)O)nn4)(C2)C3)s1.[Lu+3] [Compound 107.17]	1 to 2.5 nM
